# tested-target: T1, Human LY6G6D ectodomain fused to mouse IgG2A Fc (monovalent display, knob-in-hole) (human, biotinylated for BLI capture (site not stated))
# T1 chain: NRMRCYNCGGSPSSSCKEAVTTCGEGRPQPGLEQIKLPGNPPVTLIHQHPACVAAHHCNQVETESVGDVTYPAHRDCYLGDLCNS
# assay-text: BLI, chain shuffle round 1; antigen not named in the table (LY6G6D ectodomain as in Example 3)
// values below are reported koff
Could you give me the number in s⁻¹? Just the number is fine.

INSERT INTO measurements (binder, recorded_metric, quantitative_readout) VALUES
  ('CP1471 (heavy chain from CB21-469, light chain from CB21-500) (antibody, V domains shown, Chain-shuffled antibody) VH: EVQLVESGGGLVQPGGSLRLSCAASGFTFSSYAMNWVRQAPGKGLEWVSGISGNGGRIYYADSVKGRFTISRDNSKNTLYLQMNSLRVEDTAVYYCAKDLDVWGKGTTVTVSS VL: DVVMTQTPLSSPVTLGQPASISCRSSQNLVHSDGNTYLNWLQQRPGQPPRLLIYKISNRFSGVPDRFSGSGAGTDFTLKISRVEAEDVGVYYCMQATQFPLTFGGGTKLEIK', 'koff', 0.0017);

Next item in the queue.
Request: Given CP1476 (heavy chain from CB21-500, light chain from CB21-469) (antibody, V domains shown, Chain-shuffled antibody) VH: EVQLVESGGGLVQPGGSLRLSCAASGFTFSSYAMNWVRQVPGKGLEGVSGMSGSGGRIYYADSVKGRFTMSRDNSKNMVYLQMNSLRAEDTALYYCAKDLDVWGKGTTVTVSS VL: DVVMTQTPLSSPVTLGQSASISCRSSQSLVHSDGNTYLNWLHQRPGQPPRLLIYKISNRFSGVPDRFSGSGAGTDFTLKISRVEAEDVGVYYCMQATQFPLTFGGGTKLEIK , respond with its koff.
Result: 0.000413
